B1: MTMR15 (parent)
chain: FSPDFTLRNTLKSTSEDSLVKQEC

Variants of: B1
PROTOCOL SUMMARY: protein stability index of a GFP-peptide fusion (GPS, HEK-293T) (PSI 1-6); higher = more stable;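 note: lentivirally expressed fusions sorted by FACS into six bins by GFP to DsRed ratio, PSI derived from sequencing read proportions per bin multiplied by bin number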
TEST SETTINGS: c terminus: a fixed tail appended

MUTANT LABEL: R8D
protein stability index: 2.68

MUTANT LABEL: E23G
protein stability index: 2.26

MUTANT LABEL: L7C
protein stability index: 2.25

MUTANT LABEL: K21H
protein stability index: 2.83

MUTANT LABEL: N9S
protein stability index: 2.34

MUTANT LABEL: K21I
protein stability index: 2.21

MUTANT LABEL: F1L
protein stability index: 5.21

MUTANT LABEL: N9M
protein stability index: 2.64

MUTANT LABEL: V20P
protein stability index: 2.44

MUTANT LABEL: L19T
protein stability index: 2.56

MUTANT LABEL: T6N
protein stability index: 1.77

MUTANT LABEL: V20H
protein stability index: 2.19

MUTANT LABEL: Q22L
protein stability index: 1.88

MUTANT LABEL: E16H
protein stability index: 2.25

MUTANT LABEL: S13I
protein stability index: 2.56

MUTANT LABEL: S15L
protein stability index: 1.96

MUTANT LABEL: P3I
protein stability index: 2.44

MUTANT LABEL: S18D
protein stability index: 1.76

MUTANT LABEL: Q22C
protein stability index: 2.06

MUTANT LABEL: S2M
protein stability index: 3.69

MUTANT LABEL: T14D
protein stability index: 2.1

MUTANT LABEL: K21L
protein stability index: 2.04

MUTANT LABEL: C24A
protein stability index: 2.03

MUTANT LABEL: E23T
protein stability index: 1.75

MUTANT LABEL: D17Y
protein stability index: 2.11

MUTANT LABEL: L7M
protein stability index: 3.06

MUTANT LABEL: S13N
protein stability index: 2.69

MUTANT LABEL: L19P
protein stability index: 1.96

MUTANT LABEL: R8H
protein stability index: 1.89

MUTANT LABEL: F1C
protein stability index: 4.17

MUTANT LABEL: K12V
protein stability index: 2.14

MUTANT LABEL: E16Y
protein stability index: 1.83

MUTANT LABEL: F1A
protein stability index: 3.9

MUTANT LABEL: P3M
protein stability index: 1.99

MUTANT LABEL: F5L
protein stability index: 3.54

MUTANT LABEL: V20D
protein stability index: 2.08

MUTANT LABEL: N9P
protein stability index: 1.82

MUTANT LABEL: L7G
protein stability index: 2.48

MUTANT LABEL: T6I
protein stability index: 3.13

MUTANT LABEL: D17C
protein stability index: 1.47

MUTANT LABEL: L19K
protein stability index: 1.85

MUTANT LABEL: L11Q
protein stability index: 2.06

MUTANT LABEL: V20G
protein stability index: 1.78

MUTANT LABEL: K12D
protein stability index: 2.27

MUTANT LABEL: S18K
protein stability index: 2.17

MUTANT LABEL: S2R
protein stability index: 4.02

The measurements presented in this section are drawn from the supplement of paper PMC10567573.
